Assay: folding stability dG unfold (combined trypsin and chymotrypsin); higher = more stable
Cut-off 10 kJ/mol on folding stability dG unfold, inclusive. At or above means criterion met; below means criterion not met.

Is the recorded value of folding stability dG unfold equal to or greater than 10 kJ/mol for this sequence? DYKIKIPVARFPDGYWYIRAEIEDPDGETHEYEYPIPMPPGDTFDIDLPEDEPYKIKKIWIYHNGKPQPITS [r1_70_TrROS]
criterion not met

Textbook exercise: given the entry SAGGSAGGSAGRMLVIEIEMPGRKRTFMIPTPDGPPIKAEELADKLGFDNVTVKIHPIDDSAGGSAGGSAGG [r11_219_TrROS] , state whether its folding stability dG unfold is greater than or equal to 10 kJ/mol.
criterion not met

Quick check: does SAGGKVKVTVTPDGTVTIEFEAESVEEAIKAAKAFLEEAGFEVESIPVEVPPDGTVKVTAKIKPKNASAGGS [r8_253_TrMRF] have folding stability dG unfold greater than or equal to 10 kJ/mol?
criterion not met

Please check the record SAAKKLKELGYKVKKVEVLKPFTLPDGTTLTEYRITVELPTKTVTVDIIAPGESPEIAEEAALAAITASSAG [r14_726_TrMRF] and state if its folding stability dG unfold is at or above 10 kJ/mol.
criterion met

Test whether the sequence SAGGSAMKPGEPVEFNIMIKIRDPNGKPVGEIDIKVEYPKGQSESQMFDRARNEINNLAPEGHLEISAGGSA [r15_310_TrROS] records folding stability dG unfold of 10 kJ/mol or higher.
criterion not met

Decide: folding stability dG unfold of SPLKPNDIRPIKFTSPIRNPDNGRPFRIKVEIWVMPEDPMVIIKDEIEPPNGRTREHTFWIPPGQKIEIPSA [r9_88_TrROS] >= 10 kJ/mol?
criterion not met

Could you please find out whether SAGGSAGGYWMISVKIYDPEDGKPIAQMTFMFDSPEEAERIVEEIADALPPGYRVEVDIHPIPNSAGGSAGG [r6_690_TrROS] has folding stability dG unfold that meets 10 kJ/mol or exceeds it?
criterion met

Identify whether the reported folding stability dG unfold of the following sequence is 10 kJ/mol or greater: SAGGSAGGSAGGSPEFKIVSVEYDPETGLVTLEIEREDGSTLRFVFDKDGKLVRVEELPSAGGSAGGSAGGS [r4_259_TrROS_Hall]
criterion met

Is folding stability dG unfold at least 10 kJ/mol? Consider SAGGSAGGSAGGMTTITVKDKTKEEIEKELAEKYNVKKVTVTPIEGNSVKVEVEIEPLGSAGGSAGGSAGGS [r10_1219_JUSTAS]
criterion not met

Could you verify whether the entry SAGGSAGGSDVTVTEYDVTLTVDVTFTAPDANGNPVTTTTPVTIPLKVTVFDFGTARLVVVEGSAGGSAGGS [r20_58_TrMRF] shows folding stability dG unfold of no less than 10 kJ/mol?
criterion met

Evaluate SAGGSAITIEVTMNPNGYMGIRLRDPGNGEEIQIPFPMEPGQNPEDVRNWAREIVDELKKDGWRIYSAGGSA [r15_1022_TrROS] : folding stability dG unfold at minimum 10 kJ/mol?
criterion not met

For this sequence, is measured folding stability dG unfold 10 kJ/mol or higher? SAGGSAGGSAPNYIKIRIKFQSDGKRHSMEIFIPDNPKKAKQIAKEMANMGGIEDVEVERYSAGGSAGGSAG [r3_310_TrROS]
criterion not met

Quick check, folding stability dG unfold >= 10 kJ/mol? SAGGSAGGSAGGRIRLRTELLVRREDGSLSRFRETAVFEVEARPRPVPAPRAYRDANGRLVSAGGSAGGSAG [r3_252_TrMRF]
criterion not met

folding stability dG unfold >= 10 kJ/mol for SAGGSASSMVSSLPLKVDPKEKARAEAEKLAEEKLEEEPDLEGTVEVELEMETPDKKIKVRLEIKKSAGGSA [r15_729_JUSTAS] ?
criterion not met

Threshold query (folding stability dG unfold >= 10 kJ/mol) on SAGGSAGGSAGLKPEVEALVRVVLKLPEGERVVLVKVKTLEELFELDLPEVVSIEIRPLKSAGGSAGGSAGG [r17_290_TrMRF]
criterion not met

Would you say SAGGSAGGSAGGMIIIIPTPKGTVALVIDENSDKPTLIEASPDEIPDLIEKGAKEVIILPSAGGSAGGSAGG [r7_266_TrMRF] shows folding stability dG unfold at minimum 10 kJ/mol?
criterion not met

Does the reported folding stability dG unfold for SAGMIKVEVYTLDPNGVLTKETYEIPLLPGTPIEEVVNELTEPGTGAVEIVEYNPPPPEIKIKIVRFPASAG [r5_227_TrMRF] fall at or above the 10 kJ/mol mark?
criterion met

Given the entry SAGGPSMSLSTRTVTLPVDPDTTEEEIKEALNREVKLPSPSTAIETPVEVEISPGPPVATVTLQVKILSSAG [r5_939_JUSTAS] , answer whether its folding stability dG unfold meets or surpasses 10 kJ/mol.
criterion not met

---

Would you mind telling me the reported folding stability dG unfold of each entry?
Assay: folding stability dG unfold (combined trypsin and chymotrypsin); higher = more stable
Express it in kcal/mol; write the number only.

Which folding stability dG unfold value is on record for SAGGSAGGSMKYYKTKDGKIVKAPPIETVKLKLKLEINGKKIEIEIEMSKEEIDKLLKELEKKSAGGSAGGS [r20_148_TrROS_Hall] ?
1.05

Using the record for SAGGKLTELIRSLFEKLNVPLEPLETGPNSAIFRFPGKPGVFELPGNSRIVIFEDGLVVVVAPPNDLSAGGS [r8_297_TrMRF] , report its folding stability dG unfold.
1.61

# get_value(readout='folding stability dG unfold', item= SAGGSAGGSAGGLPKPVTVTLSRPEGGETLTLTFPSGTTPEEVRAAVEAEPDLSILSISSSAGGSAGGSAGG [r7_624_JUSTAS] )
1.1

Look at this sequence and give its reported folding stability dG unfold. SAGGSAGGSAGGLHPDQEFAVRLDLDLDLRLGPGADLRVSDVRVGGVRVYDLRTGRWLDSAGGSAGGSAGGS [r10_248_TrMRF]
-0.323

Using the record for SRIKISIFRPGKIIPEIPIKVDSVEEAVEKVLEYIRKFPPNAPYYIMIEVEHTDPANGQKQEGTVHIPIKSA [r9_245_TrROS] , report its folding stability dG unfold.
3.39

Look up folding stability dG unfold: SAGGGAMLVGETTTSKWIEKTIRNENGEVETKKVKVTTKPVTYKLPDGTLATETKVTIIYPDGSTKEESAGG [r13_113_JUSTAS]
-0.181

Recorded folding stability dG unfold of SKGKKVLVIPATLPEAEEIAKALGLPPSLFPSSKKLVDALKEAFPENVVVVVAPAKPVTEEELKALAEGKSA [r9_74_TrMRF] , please.
0.678

What value of folding stability dG unfold has been reported for the following sequence? SAGMIKPEEIVEKVKAIFEEEGLENVTVKVYYDEETDEIFVEVEVELEPEEEEKAQAILDKIKKELGLESAG [r5_9_TrMRF]
2.85

Look up folding stability dG unfold for this sequence: SAGGAIGPEEAERLAQEIADRLAAEFREAEPDVEVEVEAEVFPPEGVIRVRPRLPDGRLLAEVTFPVGSAGG [r13_247_TrMRF]
0.0873

What value of folding stability dG unfold has been reported for the following sequence? SAGGSAKVIRVKSLEEALKLAEEAKKAGLEVEIKLLPDGSVLITVKPKPKPKVKKVEKKVKLPEGKSAGGSA [r15_761_TrROS_Hall]
1.36

Please give the measured folding stability dG unfold for this sequence: SAGPITITYDEETGTLTITATVAPGEEVTFKLTFVDEETGVVVTEVEETVTVKEGDTVTITVKVEKLPPSAG [r5_737_TrROS_Hall]
3.34

Look at this sequence and give its reported folding stability dG unfold. SAGGDKLGKPLGGKPVTFDISKEELSYNPSNGTWSKSVVTTPRTVFYPPDAEPDPAVFASGAGSVTLASAGG [r13_753_JUSTAS]
-0.184

// query folding stability dG unfold value for entry SAGGSAGGSMLTVKITLPNGEKIEIEIEAESEEEAKAAAEKLLEALREAGVSLEDVKVEVVEPSAGGSAGGS [r12_295_TrROS_Hall]
3.66

Consider the sequence SAGGSMVVTETLVETLTETLTFPDGTPVTVTVPVTVTVEVYLPEPPAPPPLPFSRLAEELGDPALVSAGGSA [r2_340_JUSTAS] and give its measured folding stability dG unfold.
-0.623

Could you share which folding stability dG unfold value was measured for SAGMKIKITLPNGAEFESNPETGKIEVIDPETGKPLIAYIPKDRPDIAFIFDPDNPKPLFEVKIDEIYPSAG [r5_761_TrMRF] ?
1.11

Which folding stability dG unfold value is on record for SAGGSAGGMVTSSVSALPDGSYRLTITYPDGTVLTFEFDSEEEVAALLAELAEALPADAAVPLASAGGSAGG [r6_464_JUSTAS] ?
1.71

What does the record list as folding stability dG unfold for SAGGSAGGSATITITVDGKTITLEVPEDSEVEIVFDEKTGKLFIKDKKTNKVYEVSLEELLSAGGSAGGSAG [r3_137_TrROS_Hall] ?
3.92

Fill in: folding stability dG unfold of SAGGSMEIPLGETIPIFFDDVIIEIEPETHEIHVIAEDSEKALELIKNLPFPIPAGEVKELSPEEFSAGGSA [r2_418_TrMRF] is ___
-0.364

Given the sequence SAGGKTITLPNGITITVNEDGTVTVTVTVDGKTLTVTVKVDSLEEALAAILEELRRLLKPPEVTVVKPSAGG [r13_896_TrROS_Hall] , what is its reported folding stability dG unfold?
3.07

Entry SAGGSAPDNKPKPVVREVEFWIMIPFKSAEQAKEIVEELMKFFGGLKVEILEVHPDGYAMIKITIYSAGGSA [r15_387_TrROS] : reported folding stability dG unfold = ?
5.15
